- Tested on: CP260
- PROCEDURE SUMMARY: qHTS profiling for inhibitors of Plasmodium falciparum proliferation (AID 504749); note: nearly all actives have a fitted effect of over 60% in size
- CONDITION DESCRIPTION: P. falciparum in erythrocytes, SYBR Green DNA, 72 h; series mostly up to 28.7 µM
Results filed as inconclusive are left out. The source made the active and inactive calls. Calls come from the whole dose curve; as a rule, active = well fitted inhibition curve with a large enough effect; inconclusive = small, poorly fitted or top-dose-only effect; inactive = flat fitted curve, though single readings scatter.
Pick one and only one: active, inactive

Worked examples follow.
OCC(O)C(O)C(O)C(O)CO (centres undefined) | inactive
CCN(CC)CC(=O)Nc1c(C)cc(C)cc1C | inactive

In the following, a different compound is considered.
Query string: Check the results log: what was the call for CC1(C)SC2[C@@H](N=CN3CCCCCC3)C(=O)N2[C@H]1C(=O)O (some centres undefined) ?
Result string: inactive
